Cited source for all entries: the supplement of paper PMC12764529

# ASSAY: folding stability dG unfold from chymotrypsin proteolysis; higher = more stable
A collection of sequences and their measured folding stability dG unfold
Your answer should be a plain number; it is taken to be in kcal/mol.

MONOMER_SEQUENCE	folding stability dG unfold / kcal/mol
SAGSEVTLEITLTREVPSGKPVTLTETKTVPLAPSVPVEEVIKALKSPEWTAKVTLYTDGTPVTELTLDSAG [r5_278_JUSTAS]	0.604
SAGGSASVKVEETVEFLPGGVVKTTTRTFFPDGTVTTTDTVTALPPVPVYDISSPENLSPALERLASAGGSA [r15_1018_JUSTAS]	1.16
SAGGKTIWIPMPPGDPEKFAKNIADEILEEAQKQGENVDVKITIQYPDGQYMRITIDGNGKIDKIVPWSAGG [r13_965_TrROS]	0.652

Shift focus to the following entry.
Inquiry: Need folding stability dG unfold of SAGGSSGSIDRVELLSFDPEKGIALVRFPSFGSIQVIPIPPGKNSLKVKVINKNGEPFEFTFSLPLSAGGSA [r2_132_TrMRF] , thanks.
Reply text: 3.1

* * *

A collection of sequences and their measured folding stability dG unfold
# ASSAY: folding stability dG unfold (combined trypsin and chymotrypsin); higher = more stable

Answered examples (5):
MONOMER_SEQUENCE	MEASURED
SAGGSAGMVVEPREVVIKLKPPNGPETTLEVELVEVEPDSLVLRNGDTPIVLPPDAEDVEILEVTGSAGGSA [r15_510_JUSTAS]	0.0501 kcal/mol
SAGSPVVIKVSKVDSSGNWTLLEEIPIPPSEVSGVELVGDSLKILPPGSGGSYTFTIENSTVTVSIEESAGG [r19_408_JUSTAS]	0.933 kcal/mol
SAKPIPLKNVTINMYKDEKGNYYFKVTLNDKFIGEFEFETTEEALEGAIELAKEIEKIYGPNNIKIKNESAG [r14_791_TrMRF]	2.64 kcal/mol
SMPTTVLGSSPSVLPDGSVRYPVAVRRYPEYGVLVEETVTYFPGSGKFVPERRVEIPPDNPAALEWVRRESA [r9_980_JUSTAS]	< -1 kcal/mol
SAGGSAGGSAGGMITIEEDPNKDLKTVTVYVPEKPKWVTVDVKPSETIEEALAKAEELLKSAGGSAGGSAGG [r7_138_JUSTAS]	-0.514 kcal/mol

Inquiry: Need folding stability dG unfold of SAGGSAGGSADKIPVKIKVKLKDGDKEYEVTVTVTLDVNDPNLDAFAKELASSGKIEEVEASAGGSAGGSAG [r3_30_TrMRF] , thanks.
Reply text: 0.973 kcal/mol

Inquiry: Need folding stability dG unfold of SAGGIRMPPGQTQTFKLPGRKIEVHMGPNGPIYIEIENPGNGEPVEVPMRGDMTIDEMADAILDKLGSAGGS [r8_158_TrROS] , thanks.
Reply text: < -1 kcal/mol

* * *

A collection of sequences and their measured folding stability dG unfold
# ASSAY: folding stability dG unfold (combined trypsin and chymotrypsin); higher = more stable
Your answer should be a plain number; it is taken to be in kcal/mol.

MONOMER_SEQUENCE	MEASURED
SDDIKNMPFRITEIEPLPPGDPIPPGQRIRITIQMPDFPGQPFEFDIRVDPENGMIYMEMGGMPFEIPIKSA [r9_243_TrROS]	1.67
SAGGSAGGSAGGSLEIEITFELPDDVRLRIRARIEPLPDGSLKVEVEIELIPVKPDEDLSAGGSAGGSAGGS [r10_241_TrMRF]	3.09
SAGGSAGGSPDAPPPPVNVVVPIPESELLSEEELPGGTTLRTYRLPDGTEITVRTAPDGRVTVDSAGGSAGG [r6_119_JUSTAS]	3.57
SAGGSKVTLEVNEDGTVTLTVTRPDGKKVTLTITKNEDGTYTIRDEETGKTITVPAGMSIEELLKASAGGSA [r2_338_TrROS_Hall]	5.09
SAELEELLKKAEELAKKNNVEVEVEVKLELEPVKVTEYKLNKDGKPVEKKEEEELELRLEIKVKIRPKKSAG [r14_728_TrROS_Hall]	2.58

Inquiry: Need folding stability dG unfold of SAGGSAGGMTITLRIKITNPDGEEKEIEVELELPEELKGKTLEELAAELAKALLPPGAKVEVEPSAGGSAGG [r6_821_TrROS_Hall] , thanks.
Reply text: 2.72

Inquiry: Need folding stability dG unfold of SAGGSPNFRIHIEGPEGKTLQYPVDPGFNKPDIQDWLQELGNIEIDQHPNDGWITIRIPKDALDQFSAGGSA [r2_164_TrROS] , thanks.
Reply text: 0.161

Inquiry: Need folding stability dG unfold of SAGGSAGGSAGMPPGSIKVTVTSTAPDGTPSTTESTIPPSQVDKVKAEAAAKGWTVSFTGSAGGSAGGSAGG [r11_603_JUSTAS] , thanks.
Reply text: 0.245

Inquiry: Need folding stability dG unfold of SAGGSAGGSELPPGPYLVTIPADPEPVVAPATFAPDGTVRVRVPEPGEEITIPRDQAEIFPVESAGGSAGGS [r12_782_JUSTAS] , thanks.
Reply text: -0.0148

Inquiry: Need folding stability dG unfold of SAGGSAGGKGKLVDEPPIRDPNNGKDVWAFIMDPDGRMEVYDPNEIEEIPLKPGQIMIFTPEDLSAGGSAGG [r6_627_TrROS] , thanks.
Reply text: 0.648

Inquiry: Need folding stability dG unfold of SAGGSAGGSAGNPNTPVIVKITLPGGKEITLEGTVSEAEEIVKKLEEEGHPFVEVEVYNRSAGGSAGGSAGG [r11_946_JUSTAS] , thanks.
Reply text: 0.0762

Inquiry: Need folding stability dG unfold of SIIIQFDNPEEAKENAEDFINEFQDEFGPGQKIPITIHDPGGDPATFPIEIEPPPPPVEYDEENGKLKPDSA [r9_596_TrROS] , thanks.
Reply text: 1.51

Inquiry: Need folding stability dG unfold of SMGSTTVTVELEFEVEDPSVFPPDTTVDVPEEVIEKLRAEGYTVTEITTTVEPTPSGRVRVRVTMTVRVDSA [r9_465_JUSTAS] , thanks.
Reply text: 2.93

Inquiry: Need folding stability dG unfold of SAGGSAGGMTVDPENPVVYYPGSDGKAQTYPLSPDSSLKLPDGKVVTVTPVPEGSVSVSVSPVESAGGSAGG [r6_296_JUSTAS] , thanks.
Reply text: 1.02

Inquiry: Need folding stability dG unfold of SAGMTITLDGVEITVERVRDEETGEWYYRVTVTVTTEDGEKVTITVTVPEGMTPEQVEALARELAEALASAG [r5_704_TrROS_Hall] , thanks.
Reply text: 4.54

Inquiry: Need folding stability dG unfold of SAGGSAGGSAGGSVTIPVPENVKVRIYPPNGGRREVTAAAGATITVPAPGGEEVRIEVETSAGGSAGGSAGG [r7_357_TrMRF] , thanks.
Reply text: 0.193
